tested on: TK-10 renal; assay: NCI-60 one-dose screen, 48 h; settings: 10 µM unless noted
Compounds without any hit were thinned out: in the full panel of roughly 83,000, 20% have a hit. Activity calls are given as the source filed them. The calls were made as follows: active = growth percent below 10; inactive = the rest.
Assign a class; possible classes are 1.0 = active, 0.0 = inactive

stdin: Just curious, what result did Cc1ccc(-n2c3c(c(-c4ccccc4)c2-c2ccccc2)C2=NCCN2C=N3)cc1 get here?
stdout: 0.0

stdin: Could you check what this test reported for COc1cc2oc(-c3cccc(C(=O)Nc4ccc(Cl)cc4)c3)cc(=O)c2c(O)c1OC ?
stdout: 0.0

stdin: Check the results log: what was the call for COc1cc2nc(-c3ccc(C(F)(F)F)cc3)cc(OCCN3CCCCC3)c2cc1OC ?
stdout: 0.0

stdin: Just curious, what result did C[C@@H](Nc1ncnc2ccc(-c3cnc(N)nc3)cc12)c1ccc(F)cc1 get here?
stdout: 0.0

stdin: Record lookup: outcome of this test for COc1cc2nc(-c3ccc(C(F)(F)F)cc3)cc(OCCCN3CCOCC3)c2cc1OC ?
stdout: 0.0

stdin: Please let me know the test result on file for CC(=O)Oc1ccc(/C=N/NC(N)=S)nc1 .
stdout: 0.0

stdin: Which outcome did this test record for the compound CC(C)N1C(=O)/C(=C2\SC(=S)N(C(C)C)C2=O)SC1=S ?
stdout: 0.0

stdin: Which result was noted for this compound in the test: C#Cc1cccc(NC(=O)c2cccc(NC(=O)CCl)c2)c1
stdout: 1.0

stdin: What classification did CCCCCCCC(=O)OCC/C=C/C1OC1C1OC(=O)/C=C\C=C\C(=O)N(C(C)=O)C(=O)/C=C(/C)CCC2OC2C1OC(=O)NC(C)=O (centres undefined) end up with in this test?
stdout: 0.0

stdin: Any idea what this test logged for O=C(CSc1nc2sc3c(c2c(=O)n1-c1ccc(Cl)cc1)CCCC3)Nc1nc(-c2cccc(Br)c2)cs1 ?
stdout: 0.0

stdin: State the result this test recorded for CCOC(=O)C1=C(CCl)NC(=O)NC1c1ccc2c(c1)OCO2 (centres undefined) .
stdout: 0.0

stdin: Please let me know the test result on file for CCCCCN1C=C/C(=C\C(=O)n2ccc3ccccc32)c2ccccc21 .
stdout: 0.0

stdin: Assay outcome for Cc1ccc(NC(C(=O)c2ccccc2)c2ccccc2)cc1 (centres undefined) : what was it?
stdout: 0.0

stdin: Per the assay record, what outcome was assigned to COc1ccc(C(=O)Nc2cccc(C3CCc4c(cc(OC)c(OC)c4OC)O3)c2)cc1 (centres undefined) ?
stdout: 0.0

stdin: Just curious, what result did CN1CCN(C(=O)[C@]23CCC(C)(C)C[C@H]2C2=CC[C@@H]4[C@@]5(C)C/C(=C/c6ccncc6)C(=O)C(C)(C)[C@@H]5CC[C@@]4(C)[C@]2(C)CC3)CC1 get here?
stdout: 0.0

stdin: Called result for O=Cc1ccc(-c2cn3ccnc3c(-c3ccc4ncn(Cc5ccccc5)c4c3)n2)cc1
stdout: 0.0

stdin: Check the results log: what was the call for O=C(CCN1CCCC1)Nc1ccc2c(NCCCCc3ccccc3)c3ccccc3nc2c1 ?
stdout: 1.0

stdin: Test call, this compound: COc1cc2c(=O)n(CCCN(C)C)c3c4cc5c(cc4ccc3c2cc1OC)OCO5
stdout: 0.0

stdin: Hello, I am checking results. What call was entered for CC1(C)c2[nH]c3ccccc3c2C[C@]2(C)[C@H]3C(=O)C=C4[C@@H]5C[C@@](C)(C(N)=O)CC[C@]5(C)CC[C@@]4(C)[C@]3(C)CC[C@@H]12 ?
stdout: 0.0
